Cited source: a melting point compilation (Tetko et al.; mined from patent text by program, amines drawn as free bases though some values may be those of a salt)

measuredEndpoint: melting point

Use these answered entries as a reference point.
# compound, measurement
rows = [
    ("CCOc1ccc(S(=O)(=O)N2CCN(C)CC2)cc1-c1nc2cccnc2c(=O)[nH]1", "212 to 215 °C"),
    ("CC(=O)OCCN1C(=O)C(NC(=O)Nc2cccc(-c3nnn[nH]3)c2)N=C(C2CCCCC2)c2cccc(C)c21 (stereo not given)", "165 to 168 °C"),
    ("O=[N+]([O-])c1nccn1C1OC(CO)C(O)C1O (stereo not given)", "160 °C"),
    ("Cc1cccc(-c2n[nH]cc2-c2ccc(F)c(-c3ccc(NC(=O)NN4CCOCC4)cc3)c2)n1", "131 to 133 °C"),
    ("O=Cc1cc2c(s1)-c1ccccc1OC2C1=CCCC=C1 (stereo not given)", "117 to 118 °C"),
]

Now take the following compound into account.
For the compound c1ccc2cc(N3CCNCC3)ncc2c1 , what melting point is on record?
95 to 96 °C
